Measured pIC50 on RORC2 ligand binding domain (6-His-RORC2 LBD) (Homo sapiens (Human)) follows.
Sequence (P51449 269-508): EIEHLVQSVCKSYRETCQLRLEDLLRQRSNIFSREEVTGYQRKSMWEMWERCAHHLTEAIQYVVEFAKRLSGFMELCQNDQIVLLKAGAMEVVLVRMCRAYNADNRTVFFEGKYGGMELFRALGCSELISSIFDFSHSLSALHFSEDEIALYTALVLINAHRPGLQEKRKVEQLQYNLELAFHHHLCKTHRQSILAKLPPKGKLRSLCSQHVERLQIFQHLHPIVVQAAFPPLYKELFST
Give bare numbers, as −log10 of the molar value.

Observe how each entry below is paired with its result.
{"molecule": "Cn1cc(C2CCN(C(=O)[C@H]3CCCS3)CC2)c2c(C(F)(F)F)c(NC(=O)c3cccc(C#N)c3)cnc21 (single isomer, unassigned)", "value_reported": 8.15}
{"molecule": "COc1cc(Cl)cc(C(=O)Nc2cnc3c(c([C@@H]4CCN(C(=O)C5CCCC5)C(C)(C)C4)cn3C)c2C)c1", "value_reported": 7.89}
{"molecule": "Cc1c(NC(=O)c2cccc(C#N)c2)cnc2c1c(C1CCN(C(=O)[C@H](C)C(C)C)CC1)cn2C", "value_reported": 7.94}
{"molecule": "COc1cc(Cl)cc(C(=O)Nc2cnc3c(c(C4CCN(C(=O)[C@H](C)C(C)(C)C)CC4)cn3C)c2C)c1", "value_reported": 8.12}
{"molecule": "Cc1ccc(C(=O)Nc2cnc3c(c([C@@H]4CCN(C(=O)C5CCCC5)C(C)(C)C4)cn3C)c2C)cc1C#N", "value_reported": 7.93}

Which pIC50 is listed for Cc1c(NC(=O)c2cccc(C#N)c2)cnc2c1c([C@@H]1CCN(C(=O)C(C)C3CC3)C[C@@H]1C)cn2C (stereo partly drawn) ? 7.80
